Target: T1, biotinylated N-glycopeptide A3Man (AVSHN(M3N2)ASLE) (also: biotinylated, position not given here)
T1 peptide: AVSHN(M3N2)ASLE
Assay: BLI
pKd: −log10 of the molar value. No end group written: not given here. M3N2 = N-glycan
Recorded pKd by entry

{"binder": "Variant Fbs1-8 (designed binder) MGSSHHHHHHHHSSGENLYFQSHMASQQEGLVPEGSADEERDHWQQFYFLSKRRRNLLRNPCGEEDLEGWSDVEHGGDGWRVRRLPGDGGVEFTQDDSVKKYFASSYRWCRKAQVIDLQAEGYWEELLDTTQPAIVVKDWYSGRTDAGSLYELTVRLLSENEDVLAEFATGQVAVPEDGSWMEISHTFIDYGPGVRFVRFEHGGQDSVYWKGWFGARVTNSSVWVEP", "pKd": 5.94}
{"binder": "Variant Fbs1-3 (designed binder) MGSSHHHHHHHHSSGENLYFQSHMASQQEGLVPEGSADEERDHWQQFYFLSKRRRNLLRNPCGEEDLEGWSDVEHGGDGWRVEELPGDGGVEFTQDDSVKKYFASSYRWCRKAQVIDLQAEGYWEELLDTTQPAIVVKDWYSGRTDAGSLYELTVRLLSENEDVLAEFATGQVAVPEDGSWMEISHTFIDYGPGVRFVRFEHGGQDSVYWKGWFGARVTNSSVWVEP", "pKd": 6.06}
